Conditions: 308.15 K; 101.33 kPa; Liquid
// classify: if (mass density < 900 kg/m3) rule met else rule not met

COC(C)(C)C; rule met
C=C(C)C(=O)O; rule not met

###

Settings: 298.15 K; 101.33 kPa; Liquid
measured property: mass density (kg/m3)

C=CCOC(=O)C(=C)C [2-propenyl 2-methylpropenoate]; 927.997
C=C(C)C(=O)O; 1009.13
C=COC(C)=O [vinyl acetate]; 925.775
C=C(C)C(=O)OCCCC [butyl 2-methyl-2-propenoate]; 890.438
COC(C)(C)C; 735.356

###

Attribute: mass density
Conditions: 308.15 K; 101.33 kPa; Liquid
measured property: mass density (kg/m3)

C=COC(C)=O [vinyl acetate]; 913.134
C=C(C)C(=O)OCCCC [butyl 2-methyl-2-propenoate]; 880.857
C=CCOC(=O)C(=C)C [2-propenyl 2-methylpropenoate]; 917.423

The values you see were collected from the NIST ThermoML archive (doi:10.1016/j.jct.2004.11.012).
